Value source: ChEMBL document CHEMBL4229567

# maps each entry to its IC50
target: ATPase family AAA domain-containing protein 2 (Homo sapiens, UniProt Q6PL18); assay: Inhibition of N-terminal FLAG-6His-tagged TEV-fused ATAD2 (981 to 1121 residues) (unknown origin) expressed in Escherichia coli BL21(DE3) after 30 mins in presence of biotinylated triacetylated histone H4 peptide by alexa fluor 488-dye based TR-FRET assay
Sequence (Q6PL18 whole entry, the tested form may be a part): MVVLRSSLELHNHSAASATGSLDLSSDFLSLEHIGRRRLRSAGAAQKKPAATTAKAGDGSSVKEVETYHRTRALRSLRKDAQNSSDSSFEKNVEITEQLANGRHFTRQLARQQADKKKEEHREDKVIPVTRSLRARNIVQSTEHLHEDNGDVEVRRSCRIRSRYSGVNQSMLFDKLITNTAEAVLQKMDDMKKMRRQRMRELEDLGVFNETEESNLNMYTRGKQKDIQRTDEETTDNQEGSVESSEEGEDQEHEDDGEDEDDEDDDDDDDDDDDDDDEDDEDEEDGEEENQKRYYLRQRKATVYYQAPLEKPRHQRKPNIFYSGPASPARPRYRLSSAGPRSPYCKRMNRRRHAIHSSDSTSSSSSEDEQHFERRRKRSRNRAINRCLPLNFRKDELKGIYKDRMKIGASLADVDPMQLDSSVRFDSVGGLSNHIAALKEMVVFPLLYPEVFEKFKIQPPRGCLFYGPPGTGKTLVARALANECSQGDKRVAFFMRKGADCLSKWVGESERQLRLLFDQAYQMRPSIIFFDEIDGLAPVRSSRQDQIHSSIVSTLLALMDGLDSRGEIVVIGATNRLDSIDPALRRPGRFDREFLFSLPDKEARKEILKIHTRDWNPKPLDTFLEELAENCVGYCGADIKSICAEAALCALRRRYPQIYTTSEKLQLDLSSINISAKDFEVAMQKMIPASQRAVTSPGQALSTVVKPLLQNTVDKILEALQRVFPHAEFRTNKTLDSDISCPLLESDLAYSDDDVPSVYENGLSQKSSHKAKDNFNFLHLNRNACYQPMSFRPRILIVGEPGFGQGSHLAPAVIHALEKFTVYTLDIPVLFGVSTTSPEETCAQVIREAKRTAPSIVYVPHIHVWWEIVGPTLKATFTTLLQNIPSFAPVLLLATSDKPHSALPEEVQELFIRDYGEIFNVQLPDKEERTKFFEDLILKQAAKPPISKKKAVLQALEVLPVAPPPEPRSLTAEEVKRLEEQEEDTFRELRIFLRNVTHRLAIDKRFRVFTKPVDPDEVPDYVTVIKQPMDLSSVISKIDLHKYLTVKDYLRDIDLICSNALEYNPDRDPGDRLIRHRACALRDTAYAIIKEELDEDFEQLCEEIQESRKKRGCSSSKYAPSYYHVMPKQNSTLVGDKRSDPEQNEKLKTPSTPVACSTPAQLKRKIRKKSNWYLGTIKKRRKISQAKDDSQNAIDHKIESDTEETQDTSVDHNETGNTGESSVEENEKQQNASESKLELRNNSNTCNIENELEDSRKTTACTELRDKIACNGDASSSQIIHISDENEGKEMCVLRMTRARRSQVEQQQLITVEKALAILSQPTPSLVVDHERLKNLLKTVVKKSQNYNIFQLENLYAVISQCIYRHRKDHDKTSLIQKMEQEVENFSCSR
Kindly answer with a numeric value in nM, unit omitted.

// below: answered compounds
>  <SMILES_ENTRY>
Cc1cncc(-c2ccc(N[C@@H]3C[C@H]4CC[C@H](N4)[C@H]3CCC3CCS(=O)(=O)CC3)c3[nH]c(=O)c(C)cc23)c1

>  <VALUE_MEASURED>
251

$$$$
>  <SMILES_ENTRY>
Cc1cncc(-c2cnc(N[C@@H]3C[C@H]4CC[C@H](N4)[C@H]3CCC3CCC(F)(F)CC3)c3[nH]c(=O)c(C)cc23)c1

>  <VALUE_MEASURED>
100

$$$$
>  <SMILES_ENTRY>
Cc1cncc(-c2cnc(N[C@@H]3C[C@H]4CC[C@H](N4)[C@H]3CCC3CCS(=O)(=O)CC3)c3[nH]c(=O)c(C)cc23)c1

>  <VALUE_MEASURED>
251

$$$$
>  <SMILES_ENTRY>
Cc1cncc(-c2ccc(N[C@@H]3CCNC[C@H]3OCC3CCC(F)(F)CC3)c3[nH]c(=O)c(C)cc23)c1

>  <VALUE_MEASURED>
39.8

$$$$
>  <SMILES_ENTRY>
Cc1cncc(-c2cnc(N[C@@H]3C[C@H]4CC[C@H](N4)[C@H]3CCC3CCOCC3)c3[nH]c(=O)c(C)cc23)c1

>  <VALUE_MEASURED>
251

$$$$

Give IC50 (ATPase family AAA domain-containing protein 2 (Homo sapiens, UniProt Q6PL18)) of the following compound: `CO[C@H]1CNC[C@@H](OC)[C@@H]1Nc1nccc2cc(C)c(=O)[nH]c12`
25100

Give IC50 (ATPase family AAA domain-containing protein 2 (Homo sapiens, UniProt Q6PL18)) of the following compound: `CO[C@H]1CNC[C@@H](OCC2CCS(=O)(=O)CC2)[C@@H]1Nc1ncc(-c2cncc(C)c2)c2cc(C)c(=O)[nH]c12`
126

Give IC50 (ATPase family AAA domain-containing protein 2 (Homo sapiens, UniProt Q6PL18)) of the following compound: `CO[C@H]1CNC[C@@H](OCC2CCOCC2)[C@@H]1Nc1ncc(-c2cncc(C)c2)c2cc(C)c(=O)[nH]c12`
200

###

target: Bromodomain-containing protein 4 (Homo sapiens, UniProt O60885); assay: Inhibition of 6His-tagged Thr-BRD4 (BD1) (1 to 477 residues) (unknown origin) expressed in Escherichia coli BL21(DE3) after 30 mins in presence of biotinylated triacetylated histone H4 peptide by alexa fluor 647 dyse based TR-FRET assay
# maps each entry to its IC50
Put your answer as a value accompanied by its unit after it.

// below: answered compounds
>  <SMILES_ENTRY>
Cc1cncc(-c2cnc(N[C@@H]3CCNC[C@H]3OCC3CCOCC3)c3[nH]c(=O)c(C)cc23)c1

>  <ASSAYED_TARGET>
Bromodomain-containing protein 4 (Homo sapiens, UniProt O60885)

>  <VALUE_MEASURED>
10 µM

$$$$
>  <SMILES_ENTRY>
Cc1cncc(-c2ccc(N[C@@H]3C[C@H]4CC[C@H](N4)[C@H]3CCC3CCS(=O)(=O)CC3)c3[nH]c(=O)c(C)cc23)c1

>  <ASSAYED_TARGET>
Bromodomain-containing protein 4 (Homo sapiens, UniProt O60885)

>  <VALUE_MEASURED>
5.01 µM

$$$$

Okay, next one:
Which IC50 reading was recorded for the compound `CO[C@H]1CNC[C@@H](OC)[C@@H]1Nc1nccc2cc(C)c(=O)[nH]c12` ?
25.1 µM
